Reference source for all entries: ChEMBL document CHEMBL1961873

# inhibition values compiled below
molecular target: Serine/threonine-protein kinase Nek1 (Homo sapiens) (UniProt Q96PY6); settings: at 0.1 µM;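 note: mean percent inhibition of NEK1 kinase, from the GSK PKIS (published kinase inhibitor set) screening panel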
Sequence (Q96PY6 whole entry): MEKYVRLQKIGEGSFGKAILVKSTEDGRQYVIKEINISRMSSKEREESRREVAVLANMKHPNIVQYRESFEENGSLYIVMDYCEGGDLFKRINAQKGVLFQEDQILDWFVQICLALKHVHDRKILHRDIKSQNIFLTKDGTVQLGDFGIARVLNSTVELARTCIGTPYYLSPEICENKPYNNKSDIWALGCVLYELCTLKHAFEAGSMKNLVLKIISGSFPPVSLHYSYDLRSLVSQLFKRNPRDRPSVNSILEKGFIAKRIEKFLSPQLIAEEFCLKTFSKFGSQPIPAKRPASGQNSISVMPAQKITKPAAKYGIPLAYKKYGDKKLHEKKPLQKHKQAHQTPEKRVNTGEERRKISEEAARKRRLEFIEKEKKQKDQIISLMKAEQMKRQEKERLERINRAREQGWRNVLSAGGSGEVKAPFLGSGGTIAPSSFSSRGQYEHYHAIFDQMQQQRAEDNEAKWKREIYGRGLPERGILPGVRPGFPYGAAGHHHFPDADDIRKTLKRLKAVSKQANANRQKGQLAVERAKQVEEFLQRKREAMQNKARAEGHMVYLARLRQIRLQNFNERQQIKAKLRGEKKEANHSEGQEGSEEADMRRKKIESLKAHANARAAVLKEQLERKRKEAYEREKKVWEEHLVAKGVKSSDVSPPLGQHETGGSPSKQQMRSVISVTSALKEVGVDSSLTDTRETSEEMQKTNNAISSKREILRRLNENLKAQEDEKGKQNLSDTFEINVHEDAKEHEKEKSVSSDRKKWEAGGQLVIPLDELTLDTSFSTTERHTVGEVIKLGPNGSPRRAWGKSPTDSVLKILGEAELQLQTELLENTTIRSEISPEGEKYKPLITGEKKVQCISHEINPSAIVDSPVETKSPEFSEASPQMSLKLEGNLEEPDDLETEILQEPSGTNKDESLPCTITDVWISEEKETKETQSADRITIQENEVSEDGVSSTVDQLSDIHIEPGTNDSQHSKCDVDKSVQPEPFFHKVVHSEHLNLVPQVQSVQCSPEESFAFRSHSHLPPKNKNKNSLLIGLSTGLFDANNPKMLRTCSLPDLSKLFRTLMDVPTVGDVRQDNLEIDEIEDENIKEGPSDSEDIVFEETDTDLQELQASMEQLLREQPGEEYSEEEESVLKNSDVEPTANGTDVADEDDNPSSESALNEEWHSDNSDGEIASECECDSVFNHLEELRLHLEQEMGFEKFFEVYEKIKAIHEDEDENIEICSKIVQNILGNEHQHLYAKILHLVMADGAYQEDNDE

Smiles record	Reading unit	inhibition
COc1cccc(-n2cnc3c(N/N=C/c4ccncc4)ncnc32)c1	%	0
FC(F)(F)c1cccc(Nc2nccc(-c3cnn4nc(-c5ccccc5)ccc34)n2)c1	%	2.32
COc1ccc(-c2ccc3c(NC(=O)C4CC4)n[nH]c3n2)cc1	%	0.44
COc1cc(Nc2ncc(-c3ccccc3)o2)cc(OC)c1OC	%	-1.04
NS(=O)(=O)c1ccc(N/N=C2\C(=O)Nc3ccc(-c4cnco4)cc32)cc1	%	0.9

* * *

tested on: Receptor-type tyrosine-protein kinase FLT3 (Homo sapiens), P36888 [D835Y]; conditions: at 1 µM
Assay metric: inhibition (%)

Smiles record	Measured result
CN(c1ccc(NC(=O)Nc2c(Cl)cccc2Cl)cc1)c1ccnc(Nc2cccc(CS(C)(=O)=O)c2)n1	28.8
O=C(Nc1ccc(Oc2ccc3[nH]c(NC(=O)c4ccccc4)nc3c2)cc1)Nc1cc(C(F)(F)F)ccc1F	14
Fc1ccc(-c2ncn(C3CCNCC3)c2-c2ccnc(Oc3ccc(Oc4ccccc4)cc3)n2)cc1	-1.89
Cc1nnc(-c2ccc(C)c(-c3ccc(C(=O)NCc4ccc(Cl)cc4)cc3)c2)o1	-0.11
COC(=O)Nc1nc2ccc(Sc3ccc(NC(=O)Nc4cc(C(F)(F)F)ccc4F)cc3)cc2[nH]1	6.34
N#Cc1ccc(Oc2nccc(-c3c(-c4ccc(F)cc4)ncn3C3CCNCC3)n2)cc1	4.07
NS(=O)(=O)c1ccc(Nc2cc(-c3ccc(O)c(F)c3)n[nH]2)cc1	34.1
Fc1ccc(-c2ncn(C3CCNCC3)c2-c2ccnc(Oc3ccc4c(c3)OCO4)n2)cc1	-0.75
COc1cc(C)c(N(C)C(=O)CN(C)C)cc1Nc1nc(Nc2cccc(F)c2C(N)=O)c2cc[nH]c2n1	2.97

* * *

This section presents compounds with their documented inhibition values.
target: Glycogen synthase kinase-3 beta (Homo sapiens); details: at 0.1 µM;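 note: values are mean percent inhibition of GSK3B activity, from the GSK Published Kinase Inhibitor Set (PKIS) screening dataset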

Compound	inhibition [%]
O=C1Nc2ccccc2/C1=C/Nc1ccc(-n2cncn2)cc1	15.3
Cc1ccc(C(=O)NC(C)C)cc1-c1ccc(C(=O)NCC2CC2)cc1	1.46
Nc1nccc(-c2c(-c3ccc(F)cc3)ncn2C2CCC(O)CC2)n1 (stereo not given)	1.63
COc1cc(C)c(N(C)C(=O)CN(C)C)cc1Nc1nc(Nc2cccc(F)c2C(N)=O)c2cc[nH]c2n1	-3.79
NC(=O)Cc1ccccc1Oc1nccc(-c2c(-c3ccc(F)cc3)ncn2C2CCNCC2)n1	-0.25
COc1cc(Nc2ncc3c(C)nc(-c4cccc(Oc5ccccc5)c4)n3n2)cc(OC)c1OC	-0.59
NC(=O)c1ccc(Oc2nccc(-c3c(-c4ccc(F)cc4)ncn3C3CCNCC3)n2)cc1	2.57
Cc1nnc(-c2ccc(C)c(-c3ccc(C(=O)NCc4ccc(Cl)cc4)cc3)c2)o1	-0.31
CCc1ccc(Oc2nccc(-c3c(-c4ccc(F)cc4)ncn3C3CCNCC3)n2)cc1	2.44
CCc1cccc(CC)c1/C=C/c1cncc(C(=O)NC)c1	2.21

* * *

biological target: RAC-gamma serine/threonine-protein kinase (Homo sapiens); conditions: at 1 µM
Description: GSK_PKIS: AKT3 mean inhibition at 1 uM [Nanosyn]
inhibition values for the compounds below.

Compound	inhibition [%]
COc1ccc2cc(-c3c(-c4ccncc4)nc(-c4ccc([S+](C)[O-])cc4C)n3C)ccc2c1 (stereo not given)	1.08
CN(C)c1ccc2c(c1)/C(=C/Nc1ccc(S(N)(=O)=O)cc1)C(=O)N2	1.85
c1ccc(-c2n[nH]cc2-c2ccnc(-c3ccc(OCCN4CCOCC4)cc3)c2)nc1	0.6
Fc1ccc(-c2ncn(C3CCNCC3)c2-c2ccnc(Oc3ccc(F)c(F)c3)n2)cc1	-1.9
O=C(Nc1n[nH]c2nc(-c3ccc(O)cc3)c(Br)cc12)C1CC1	12.5
CCS(=O)(=O)c1ccc(OC)c(Nc2ncc(-c3ccccc3Cl)o2)c1	0.93
NC(=O)c1cc(-c2ccncc2)cc(-c2ccccc2)c1N	3.46
Cc1ccc(C(=O)NC2CCC2)cc1-c1ccc(C(=O)NCC2CC2)cc1	2.79
CN(c1ccc(NC(=O)Nc2c(Cl)cccc2Cl)cc1)c1ccnc(Nc2cccc(CS(C)(=O)=O)c2)n1	-0.15
NS(=O)(=O)c1ccc(Nc2cc(-c3ccc(O)c(F)c3)n[nH]2)cc1	-2.28

* * *

target: Ephrin type-A receptor 2 (Homo sapiens) (UniProt P29317); settings: at 1 µM;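 note: value is the mean inhibition of EPHA2, measured in the GSK PKIS screen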
Sequence (P29317 whole entry): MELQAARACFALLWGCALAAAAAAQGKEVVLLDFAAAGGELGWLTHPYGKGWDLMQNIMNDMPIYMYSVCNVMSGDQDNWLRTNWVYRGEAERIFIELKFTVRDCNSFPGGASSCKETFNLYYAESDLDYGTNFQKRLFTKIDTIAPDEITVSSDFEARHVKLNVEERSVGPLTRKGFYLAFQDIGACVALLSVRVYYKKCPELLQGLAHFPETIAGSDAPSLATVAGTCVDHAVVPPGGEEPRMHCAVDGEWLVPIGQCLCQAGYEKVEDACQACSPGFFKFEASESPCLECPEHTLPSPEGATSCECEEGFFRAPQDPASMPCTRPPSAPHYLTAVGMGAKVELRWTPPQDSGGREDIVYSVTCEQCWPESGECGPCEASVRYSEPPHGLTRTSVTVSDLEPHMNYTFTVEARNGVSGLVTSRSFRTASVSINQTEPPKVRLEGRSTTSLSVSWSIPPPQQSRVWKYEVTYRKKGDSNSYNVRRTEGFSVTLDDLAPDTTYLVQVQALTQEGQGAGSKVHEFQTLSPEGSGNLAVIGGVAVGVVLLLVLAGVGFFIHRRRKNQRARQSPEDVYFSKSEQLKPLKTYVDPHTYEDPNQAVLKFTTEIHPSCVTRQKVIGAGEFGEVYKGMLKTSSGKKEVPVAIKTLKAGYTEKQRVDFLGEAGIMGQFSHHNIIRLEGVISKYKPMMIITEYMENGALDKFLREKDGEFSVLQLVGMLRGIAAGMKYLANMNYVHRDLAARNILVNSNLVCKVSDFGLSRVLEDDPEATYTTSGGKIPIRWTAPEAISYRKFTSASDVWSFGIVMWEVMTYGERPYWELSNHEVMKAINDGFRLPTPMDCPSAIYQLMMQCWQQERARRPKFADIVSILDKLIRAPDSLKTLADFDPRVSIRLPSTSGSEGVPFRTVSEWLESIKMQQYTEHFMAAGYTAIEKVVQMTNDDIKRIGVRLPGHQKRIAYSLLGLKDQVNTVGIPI
Give true (1) when the value for inhibition is at least 60%. Give false (0) when it is less.

Smiles record	Class name
COC(=O)Nc1nc2ccc(Sc3ccc(NC(=O)Nc4cc(C(F)(F)F)ccc4F)cc3)cc2[nH]1	true (1)
FC(F)(F)c1cccc(Nc2nccc(-c3cnn4nc(-c5ccccc5)ccc34)n2)c1	false (0)
Cc1ccc(C(=O)NC(C)C)cc1-c1ccc(C(=O)NCC2CC2)cc1	false (0)
CCc1cccc(CC)c1/C=C/c1cncc(C(=O)NC)c1	false (0)
NC(=O)c1cc(-c2ccncc2)cc(-c2ccccc2)c1N	false (0)

* * *

Form field: inhibition (one value per entry).
molecular target: Casein kinase I isoform alpha (Homo sapiens); settings: at 1 µM;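 note: each value is a mean percent inhibition of the kinase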

Compound	Reading unit	inhibition
Fc1ccc(-c2ncn(C3CCNCC3)c2-c2ccnc(Oc3ccc(F)c(F)c3)n2)cc1	%	15.4
COc1ccc(C2=C(N3CCc4ccccc43)C(=O)NC2=O)cc1	%	8.77
CS(=O)(=O)CCNCc1cc(-c2cc3c(Nc4ccc(OCc5cccc(F)c5)c(Cl)c4)ncnc3s2)cs1	%	8.73
COC(=O)Nc1nc2ccc(Sc3ccc(NC(=O)Nc4cc(C(F)(F)F)ccc4F)cc3)cc2[nH]1	%	1.98
CNC(=O)c1cncc(/C=C/c2c(C)cccc2C)c1	%	2.33
CN(c1ccc(NC(=O)Nc2c(Cl)cccc2Cl)cc1)c1ccnc(Nc2cccc(CS(C)(=O)=O)c2)n1	%	1.15
Nc1nccc(-c2c(-c3ccc(F)cc3)ncn2C2CCC(O)CC2)n1 (stereo not given)	%	90.1
Cc1nnc(-c2ccc(C)c(-c3ccc(C(=O)NCc4ccc(Cl)cc4)cc3)c2)o1	%	4.63
CCC(=O)Nc1ccc(C)c(-c2ccc(C(=O)NCC3CC3)cc2)c1	%	3.41
C#Cc1cccc(Nc2ncnc3ccc(OCCCCNCCS(C)(=O)=O)cc23)c1	%	7.93

* * *

target: Inhibitor of nuclear factor kappa-B kinase subunit beta (Homo sapiens) (UniProt O14920); conditions: at 1 µM;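 note: reported as mean inhibition, from the GSK PKIS screening set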
Sequence (O14920 whole entry): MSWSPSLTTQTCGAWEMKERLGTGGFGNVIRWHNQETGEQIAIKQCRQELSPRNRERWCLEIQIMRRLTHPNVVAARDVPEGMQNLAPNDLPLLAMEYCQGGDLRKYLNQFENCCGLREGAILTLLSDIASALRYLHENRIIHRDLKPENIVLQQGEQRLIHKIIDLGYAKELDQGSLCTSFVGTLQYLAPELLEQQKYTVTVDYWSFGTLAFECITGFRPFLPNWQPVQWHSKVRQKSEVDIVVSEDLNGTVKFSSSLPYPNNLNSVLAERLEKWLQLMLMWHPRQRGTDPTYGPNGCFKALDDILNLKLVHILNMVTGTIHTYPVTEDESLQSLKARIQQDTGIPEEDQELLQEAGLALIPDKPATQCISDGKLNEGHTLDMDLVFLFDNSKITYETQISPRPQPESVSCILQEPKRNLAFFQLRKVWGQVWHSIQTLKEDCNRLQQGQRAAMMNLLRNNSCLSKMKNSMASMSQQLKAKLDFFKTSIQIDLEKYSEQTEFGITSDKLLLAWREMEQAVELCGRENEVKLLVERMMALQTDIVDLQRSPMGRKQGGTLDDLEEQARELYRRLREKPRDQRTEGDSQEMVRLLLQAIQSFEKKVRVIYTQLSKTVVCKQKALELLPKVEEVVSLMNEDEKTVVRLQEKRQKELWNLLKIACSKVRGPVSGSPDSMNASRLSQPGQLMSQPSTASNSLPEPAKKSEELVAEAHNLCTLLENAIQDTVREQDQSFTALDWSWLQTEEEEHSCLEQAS
Items are presented alongside their recorded inhibition.
Assay metric: inhibition (%)

Smiles record	Target under test	Measured result
COc1cc2ncn(-c3cc(OCc4cccs4)c(C(N)=O)s3)c2cc1OC	Inhibitor of nuclear factor kappa-B kinase subunit beta (Homo sapiens) (UniProt O14920)	6.07
CN(C)CCCNc1nccc(-c2c(-c3ccc(F)cc3)nn3cc(C(F)(F)F)ccc23)n1	Inhibitor of nuclear factor kappa-B kinase subunit beta (Homo sapiens) (UniProt O14920)	0
CCC(=O)Nc1ccc(C)c(-c2ccc(C(=O)NCC3CC3)cc2)c1	Inhibitor of nuclear factor kappa-B kinase subunit beta (Homo sapiens) (UniProt O14920)	5.57
CN1CCN(CCCNc2nc3ccc(Oc4ccc(NC(=O)Nc5cc(C(F)(F)F)ccc5F)cc4)cc3[nH]2)CC1	Inhibitor of nuclear factor kappa-B kinase subunit beta (Homo sapiens) (UniProt O14920)	-0.85
COc1cc(C)c(N(C)C(=O)CN(C)C)cc1Nc1nc(Nc2cccc(F)c2C(N)=O)c2cc[nH]c2n1	Inhibitor of nuclear factor kappa-B kinase subunit beta (Homo sapiens) (UniProt O14920)	-0.54
NC(=O)Cc1ccccc1Oc1nccc(-c2c(-c3ccc(F)cc3)ncn2C2CCNCC2)n1	Inhibitor of nuclear factor kappa-B kinase subunit beta (Homo sapiens) (UniProt O14920)	3.54
O=C1NC(=O)C(c2cccc(Cl)c2)=C1Nc1ccc(Cl)c(C(=O)O)c1	Inhibitor of nuclear factor kappa-B kinase subunit beta (Homo sapiens) (UniProt O14920)	4.76
CCc1ccc(Oc2nccc(-c3c(-c4ccc(F)cc4)ncn3C3CCNCC3)n2)cc1	Inhibitor of nuclear factor kappa-B kinase subunit beta (Homo sapiens) (UniProt O14920)	4.07
NC(=O)c1cc(-c2ccncc2)cc(-c2ccccc2)c1N	Inhibitor of nuclear factor kappa-B kinase subunit beta (Homo sapiens) (UniProt O14920)	27.5

* * *

biological target: Cyclin-dependent kinase 1 (Homo sapiens); settings: at 1 µM;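 note: mean percent inhibition of the CDK1/cyclin B complex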
Assay metric: inhibition (%)

Smiles record	Target under test	Measured result
CCC(=O)Nc1ccc(C)c(-c2ccc(C(=O)NCC3CC3)cc2)c1	Cyclin-dependent kinase 1 (Homo sapiens)	2.38
Cc1ccc(NC(=O)c2ccoc2)cc1-c1ccc(C(=O)NCC2CC2)cc1	Cyclin-dependent kinase 1 (Homo sapiens)	1.75
NC(=O)Cc1ccccc1Oc1nccc(-c2c(-c3ccc(F)cc3)ncn2C2CCNCC2)n1	Cyclin-dependent kinase 1 (Homo sapiens)	-0.43
C/C(Nc1ccc(S(N)(=O)=O)cc1)=C1/C(=O)Nc2ccccc21	Cyclin-dependent kinase 1 (Homo sapiens)	14.5
Cc1ccc(C(=O)NC(C)C)cc1-c1ccc(C(=O)NCC2CC2)cc1	Cyclin-dependent kinase 1 (Homo sapiens)	2.57
Fc1ccc(-c2ncn(C3CCNCC3)c2-c2ccnc(Oc3ccc(Oc4ccccc4)cc3)n2)cc1	Cyclin-dependent kinase 1 (Homo sapiens)	2.92
Fc1ccc(-c2ncn(CCCN3CCOCC3)c2-c2ccncc2)cc1	Cyclin-dependent kinase 1 (Homo sapiens)	2.72
COc1ccc(C2=C(N3CCc4ccccc43)C(=O)NC2=O)cc1	Cyclin-dependent kinase 1 (Homo sapiens)	3.2
CS(=O)(=O)CCNCc1cc(-c2cc3c(Nc4ccc(OCc5cccc(F)c5)c(Cl)c4)ncnc3s2)cs1	Cyclin-dependent kinase 1 (Homo sapiens)	0.45
O=C1Nc2ccccc2/C1=C/Nc1ccc(-n2cncn2)cc1	Cyclin-dependent kinase 1 (Homo sapiens)	10.6
O=C(Nc1n[nH]c2nc(-c3ccco3)ccc12)C1CC1	Cyclin-dependent kinase 1 (Homo sapiens)	2.61
COc1cccc(-n2cnc3c(N/N=C/c4ccncc4)ncnc32)c1	Cyclin-dependent kinase 1 (Homo sapiens)	0.55
NC(=O)c1ccc(Oc2nccc(-c3c(-c4ccc(F)cc4)ncn3C3CCNCC3)n2)cc1	Cyclin-dependent kinase 1 (Homo sapiens)	1.41
CCc1nccc2c1nc(-c1nonc1N)n2CC	Cyclin-dependent kinase 1 (Homo sapiens)	2.9
Fc1ccc(-c2ncn(C3CCNCC3)c2-c2ccnc(Oc3ccc(F)c(F)c3)n2)cc1	Cyclin-dependent kinase 1 (Homo sapiens)	2.42
COc1ccc2cc(-c3c(-c4ccncc4)nc(-c4ccc(S(C)(=O)=O)cc4C)n3C)ccc2c1	Cyclin-dependent kinase 1 (Homo sapiens)	1.69
N#Cc1ccc(Oc2nccc(-c3c(-c4ccc(F)cc4)ncn3C3CCNCC3)n2)cc1	Cyclin-dependent kinase 1 (Homo sapiens)	1.02
CN(C)CCOc1ccc(-c2cc(-c3ccc4c(c3)CCC4=NO)c(-c3ccncc3)o2)cc1	Cyclin-dependent kinase 1 (Homo sapiens)	1.85
COC(=O)Nc1nc2ccc(Sc3ccc(NC(=O)Nc4cc(C(F)(F)F)ccc4F)cc3)cc2[nH]1	Cyclin-dependent kinase 1 (Homo sapiens)	3.86
CS(=O)(=O)CCNCc1ccc(-c2ccc3ncnc(Nc4ccc(OCc5ccccc5)c(Br)c4)c3c2)o1	Cyclin-dependent kinase 1 (Homo sapiens)	-2.83
